Test system: HCI16 (cells of a triple-negative basal-like breast cancer xenograft);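 further: PDX cells carrying CMV promoter-driven luciferase, viability read as total photon flux per second by IVIS imaging following D-luciferin, vehicle control 0.1% DMSO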
Assay procedure: cell viability (% of vehicle); higher = less cytotoxic
Stated conditions: 10 µM; 72 h
Counter-ions that a name gives are not always drawn.
Value type: cell viability
Numbers only.

These solved cases illustrate the format of a correct answer.
{"columns": ["Molecule", "Subject of test", "cell viability"],
 "data": [
  ["C#CCNC1CCc2ccccc21.CS(=O)(=O)O (stereo not given) [Rasagiline Mesylate]", "HCI16", 141],
  ["OC(CCCN1CCCCC1)(c1ccccc1)c1ccccc1 [Diphenidol HCl]", "HCI16", 118],
  ["CCNC1CC(C)S(=O)(=O)c2sc(S(N)(=O)=O)cc21.Cl (stereo not given) [Dorzolamide HCl]", "HCI16", 98.2],
  ["CCNC1CN(CCCOC)S(=O)(=O)c2sc(S(N)(=O)=O)cc21 (stereo not given) [Brinzolamide]", "HCI16", 100]
]}

Let us examine a further case.
Give its cell viability value. Item: S=P(N1CC1)(N1CC1)N1CC1 120
